# Tested on: Saccharomyces cerevisiae growth inhibition, permissive control
# Assay summary: yeast lifespan-shortening chemical project counter-assay, dose-response inhibition of growth under permissive conditions (AID 850);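 further: growth read as optical density after one day of incubation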
Activity calls are given as the source filed them. How the calls were made is not given here.
Please go through the items and note down their IC50.

Past entries and their recorded results:
>>> print(df.to_string())
                                   molecule          measurement
0  Cc1cccc(OCCn2cc(/C=N/NC(=O)c3ccncc3)c3ccccc32)c1  > 100 µM (inactive)
1   c1ccc(-c2nnc(-c3ccccn3)nc2NC2CCCCC2)cc1              12.6 µM
2  CCc1cccc(C)c1NC(=S)NCCc1c(C)[nH]c2ccc(C)cc12  > 100 µM (inactive)
3       CCCCCCCCCCCCCCCC[n+]1ccc(C(N)=O)cc1             0.545 µM
4  Cc1ccc(C)c(-n2nnnc2SCC(=O)Nc2cccc(-c3nnc4n3CCCCC4)c2)c1  > 100 µM (inactive)

# map each molecule to its IC50
1. CC(=O)NC1C(=O)N=C(SCC(=O)NC2CCCCC2)NC1=O (configuration not stated)
2. CCCn1c(C(C)NC(C)=O)nc2ccccc21 (configuration not stated)
3. NC(N)=N/N=C/c1ccc(OCc2ccc(Cl)cc2Cl)cc1
4. O=C(O)c1cc2c(s1)-c1ccccc1OC2
5. O=C(O)c1ccccc1C(=O)NNc1ccc(Cl)cc1

Output:
1: > 100 µM (inactive); 2: > 100 µM (inactive); 3: 28.1 µM; 4: > 100 µM (inactive); 5: 7.11 µM

Give IC50 for all molecules that follow.
1. CC(C)(C)n1nc(-c2ccc(F)cc2)c2c(N)ncnc21
2. c1ccc(-c2nc3c(ccc4ccccc43)[nH]2)nc1

Output:
1: < 0.098 µM; 2: 36.8 µM

----------
# System: Saccharomyces cerevisiae growth inhibition, permissive control
# Assay summary: yeast lifespan-shortening chemical project counter-assay, dose-response inhibition of growth under permissive conditions (AID 850);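 further: growth read as optical density after one day of incubation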
Activity calls are given as the source filed them. How the calls were made is not given here.
Please reply with one of these outcomes: 1 (yes) = active, 0 (no) = inactive

Previously resolved entries follow.
                           structure_string  class_name
0  CCCc1ccc(Oc2c(-c3ccc(O)c(C)c3O)n[nH]c2C)cc1     1 (yes)
1  CCOC(=O)c1c(N)sc(C(O)(C(F)(F)F)C(F)(F)F)c1-c1ccc(F)cc1      0 (no)
2          Cn1cccc1C(=O)Nc1nc(-c2ccccn2)cs1     1 (yes)
3    Cc1ccc(C)c(/C=C/C(=O)c2ccccc(=O)c2O)c1     1 (yes)
4         CC(=O)/C(=N\Nc1ccc(C)cc1)N1CCOCC1     1 (yes)

Now look at this entry.
Input: Entry `O=[N+]([O-])c1cccc(/C=N/n2cnnc2)c1O` : call = ?
Output: 1 (yes)

----------
Consider the following molecules; for each one, report its IC50.
# Tested on: Saccharomyces cerevisiae growth inhibition, permissive control
# Assay summary: yeast lifespan-shortening chemical project counter-assay, dose-response inhibition of growth under permissive conditions (AID 850);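 further: growth read as optical density after one day of incubation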
Calls of active or inactive are those of the source. How the calls were made is not given here.

In [3]: df
Out[3]:
                                   molecule  outcome_measure          measurement
0              COc1ccccc1OCCCc1c(C)n[nH]c1C             IC50              5.76 µM
1  CCN1/C(=C/C=C/C=C/c2sc3ccccc3[n+]2CC)Sc2ccccc21             IC50              11.3 µM
2  CCCCCCCOC(=O)C[N+](C)(C)CCOC1CC2CCC1(C)C2(C)C (stereo unspecified)             IC50              29.2 µM
3  CC1CCCC2(C1)NC(=S)N(c1ccccc1)N2 (stereo unspecified)             IC50              20.5 µM
4            Cc1cc(=O)[nH]c(-n2nc(C)cc2C)n1             IC50              15.4 µM
5  CC(Nc1ccc(Br)cn1)c1cc(Cl)ccc1O (stereo unspecified)             IC50  > 100 µM (inactive)
6  COc1ccc(C(=O)NC(=S)NNC(=O)c2cnccn2)cc1OC             IC50              46.5 µM
7             O=C(Cc1ccccc1)NCCc1cn2ccsc2n1             IC50  > 100 µM (inactive)
8   CN(c1ccccc1)c1ccc(/C=C/[N+](=O)[O-])cc1             IC50              16.8 µM
9   Cc1ccc2c(c1)-c1nc3ccccc3cc1C2=NC1CCCCC1             IC50  > 100 µM (inactive)

For each of the molecules below, state IC50.
1. Cc1nn2c3ccccc3nc2c2ccccc12
2. COC(=O)CSC1=NS(=O)(=O)c2ccccc21
3. OC(CNCCC1C=Nc2ccccc21)Cn1c2ccc(Cl)cc2c2cc(Cl)ccc21 (stereo unspecified)

Output:
1: > 100 µM (inactive); 2: > 100 µM (inactive); 3: 18.4 µM
